# ASSAYED TARGET: FGF14 (Homo sapiens, UniProt Q92915)
# Sequence (Q92915 64-252 isoform Q92915-2): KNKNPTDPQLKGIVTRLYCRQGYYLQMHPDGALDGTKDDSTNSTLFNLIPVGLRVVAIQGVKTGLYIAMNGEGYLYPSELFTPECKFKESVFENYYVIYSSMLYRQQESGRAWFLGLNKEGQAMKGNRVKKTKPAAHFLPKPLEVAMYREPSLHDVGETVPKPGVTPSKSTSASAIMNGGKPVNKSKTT
# ASSAY PROCEDURE: Surface plasmon resonance
# Assay type: binding
# TEST CONTEXT: read-out: koff FGF14
Residues, ends and D or L forms follow the SMILES beside them. *: point of attachment. Adamantane1carbonyl = O=C(C12CC3CC(CC(C3)C1)C2)*; Pyrrolidide = C1CCN(*)C1; Cbz = O=C(OCc1ccccc1)*; OcHex = C1CCC(O*)CC1; OtBu = CC(C)(C)O*; OAll = C=CCO*; OPr = CCCO*
Assignment: determine reported koff for the given compounds.
Give bare numbers, in s⁻¹.

Some solved cases for reference:
COMPOUND	ASSAYED TARGET	koff (s⁻¹)
CC(C)C[C@H](NC(=O)[C@@H]1CCCN1C(=O)OCc1ccccc1)C(=O)N[C@@H](CCC(=O)OC(C)(C)C)C(=O)N[C@H](C(=O)N1CCCC1)C(C)C [Compound 19e] (Cbz-PLE(OtBu)V-Pyrrolidide)	FGF14 (Homo sapiens, UniProt Q92915)	0.000991
CCOC(=O)[C@@H](NC(=O)[C@H](CCC(=O)OC(C)(C)C)NC(=O)[C@H](CC(C)C)NC(=O)[C@@H]1CCCN1C(=O)C12CC3CC(CC(C3)C1)C2)C(C)C [Compound 23f] (Adamantane1carbonyl-PLE(OtBu)V-OEt)	FGF14 (Homo sapiens, UniProt Q92915)	0.0205
CCCOC(=O)[C@@H](NC(=O)[C@H](CCC(=O)OC(C)(C)C)NC(=O)[C@H](CC(C)C)NC(=O)[C@@H]1CCCN1C(=O)C12CC3CC(CC(C3)C1)C2)C(C)C [Compound 23g] (Adamantane1carbonyl-PLE(OtBu)V-OPr)	FGF14 (Homo sapiens, UniProt Q92915)	0.0204

Give koff for all compounds that follow.
1. CC(C)C[C@H](NC(=O)[C@@H]1CCCN1C(=O)C12CC3CC(CC(C3)C1)C2)C(=O)N[C@@H](CCC(=O)OC(C)(C)C)C(=O)N[C@H](C(=O)OC(C)(C)C)C(C)C [Compound 23d] (Adamantane1carbonyl-PLE(OtBu)V-OtBu)
2. C=CCOC(=O)[C@@H](NC(=O)[C@H](CCC(=O)OC(C)(C)C)NC(=O)[C@H](CC(C)C)NC(=O)[C@@H]1CCCN1C(=O)C12CC3CC(CC(C3)C1)C2)C(C)C [Compound 23a] (Adamantane1carbonyl-PLE(OtBu)V-OAll)
3. COC(=O)[C@@H](NC(=O)[C@H](CCC(=O)OC(C)(C)C)NC(=O)[C@H](CC(C)C)NC(=O)[C@@H]1CCCN1C(=O)C12CC3CC(CC(C3)C1)C2)C(C)C [Compound 21a] (Adamantane1carbonyl-PLE(OtBu)V-OMe)
4. CC(C)C[C@H](NC(=O)[C@@H]1CCCN1C(=O)C12CC3CC(CC(C3)C1)C2)C(=O)N[C@@H](CCC(=O)OC(C)(C)C)C(=O)N[C@H](C(=O)OC1CCCCC1)C(C)C [Compound 23e] (Adamantane1carbonyl-PLE(OtBu)V-OcHex)

1: 0.0058; 2: 0.00932; 3: 0.00933; 4: 0.0139
